Assay: Plasma pharmacokinetics of BIA 10-2474 and metabolites
Type: in vivo, human
Details: human, plasma, oral, 50 mg, AUC0–τ, 50 mg once daily, Day 1
Endpoint Name: AUC (ng·h/mL)
Your answer should be a plain number; it is taken to be in ng·h/mL.

Suppose we examine the compound CN(C(=O)n1cnc(-c2ccc[n+]([O-])c2)c1)C1CCCCC1 ; what AUC value has been reported?
7770

---

Experiment: Plasma pharmacokinetics of BIA 10-2474 and metabolites
Type: in vivo, human
Conditions: human, plasma, oral, 50 mg, t1/2, 50 mg once daily, Day 1
Endpoint Name: half-life
Include the unit after the number when you answer.

Suppose we examine the compound CN(C(=O)n1cnc(-c2ccc[n+]([O-])c2)c1)C1CCCCC1 ; what half-life value has been reported?
8.67 h
